For each record, write down the corresponding log10 IC50.
SUBJECT OF TEST: DYRK1A (Homo sapiens, UniProt Q13627)
EXPERIMENT NOTES: Kinase inhibition assay, DYRK1A
Type: biochemical
RUN CONDITIONS: average of triplicate determination (<10% variation); read-out: Kinase inhibitory potency (IC50) DYRK1A
In plain terms, each number is the log10 of measured IC50 in µM.

Recorded log10 IC50 for CCn1c2ccccc2c2c(N)ncnc21 [Compound 3c, 9-Ethyl-9H-pyrimido[4,5-b]indol-4-amine] with DYRK1A (Homo sapiens, UniProt Q13627), please?
0.99

// same read-out, input: Cn1c2ccccc2c2ncnc(N)c21 [Compound 1b, 5-Methyl-5H-pyrimido[5,4-b]indol-4-amine]
0.76

// same read-out, input: Nc1ncnc2[nH]c3cc([N+](=O)[O-])ccc3c12 [Compound 4a, 7-Nitro-9H-pyrimido[4,5-b]indol-4-amine]
0.88

// same read-out, input: CCn1c2ccccc2c2ncnc(N)c21 [Compound 1c, 5-Ethyl-5H-pyrimido[5,4-b]indol-4-amine]
0.61

// same read-out, input: COc1ccc2c3ccnc(C)c3n(Cc3ccccc3)c2c1 [Compound 11d, 9-Benzyl-7-methoxy-1-methyl-β-carboline]
-1.23

// same read-out, input: `CCn1c2cc([N+](=O)[O-])ccc2c2c(N)ncnc21`
0.77

// same read-out, input: Nc1ncnc2[nH]c3ccccc3c12 [Compound 3a, 9H-Pyrimido[4,5-b]indol-4-amine]
0.49

// same read-out, input: Nc1ncnc2c1[nH]c1ccc([N+](=O)[O-])cc12 [Compound 2a, 8-Nitro-5H-pyrimido[5,4-b]indol-4-amine]
0.88

// same read-out, input: Nc1ncnc2c1[nH]c1ccccc12 [Compound 1a, 5H-Pyrimido[5,4-b]indol-4-amine]
0.34

###

SUBJECT OF TEST: UniProt:Q13627
EXPERIMENT NOTES: Kinase inhibition assay, DYRK1A
Type: biochemical
RUN CONDITIONS: read-out: Kinase inhibitory potency (IC50) DYRK1A
REPORTED METRIC: IC50 (nM)
# value in nM; strip the unit string

For CCn1c2cc(OC)ccc2c2ccnc(C)c21 [Compound 11c, 9-Ethyl-7-methoxy-1-methyl-β-carboline] , what is its reported IC50?
37

###

For each record, write down the corresponding pIC50.
SUBJECT OF TEST: GSK-3α/β
EXPERIMENT NOTES: Kinase inhibition assay, GSK-3α/β
RUN CONDITIONS: average of triplicate determination (<10% variation); read-out: Kinase inhibitory potency (IC50) GSK-3α/β
pIC50: −log10 of the molar value.

Recorded pIC50 for `Cn1c2ccc([N+](=O)[O-])cc2c2ncnc(N)c21` with GSK-3α/β, please?
< 5.00

// same read-out, input: CCn1c2ccccc2c2c(N)ncnc21 [Compound 3c, 9-Ethyl-9H-pyrimido[4,5-b]indol-4-amine]
< 5.00

// same read-out, input: Nc1ncnc2[nH]c3cc([N+](=O)[O-])ccc3c12 [Compound 4a, 7-Nitro-9H-pyrimido[4,5-b]indol-4-amine]
< 5.00

// same read-out, input: COc1ccc2c3ccnc(C)c3n(C)c2c1 [Compound 11b, 7-Methoxy-1,9-dimethyl-β-carboline]
< 5.00

// same read-out, input: `CCn1c2cc([N+](=O)[O-])ccc2c2c(N)ncnc21`
< 5.00

// same read-out, input: Nc1ncnc2c3ccccc3n(Cc3ccccc3)c12 [Compound 1d, 5-Benzyl-5H-pyrimido[5,4-b]indol-4-amine]
< 5.00

// same read-out, input: `Nc1ncnc2c3cc([N+](=O)[O-])ccc3n(Cc3ccccc3)c12`
< 5.00

// same read-out, input: Cn1c2ccccc2c2c(N)ncnc21 [Compound 3b, 9-Methyl-9H-pyrimido[4,5-b]indol-4-amine]
< 5.00
